Molecular target: T1, Human CXCR2 (human, UniProt P25025 1-360)
T1 sequence: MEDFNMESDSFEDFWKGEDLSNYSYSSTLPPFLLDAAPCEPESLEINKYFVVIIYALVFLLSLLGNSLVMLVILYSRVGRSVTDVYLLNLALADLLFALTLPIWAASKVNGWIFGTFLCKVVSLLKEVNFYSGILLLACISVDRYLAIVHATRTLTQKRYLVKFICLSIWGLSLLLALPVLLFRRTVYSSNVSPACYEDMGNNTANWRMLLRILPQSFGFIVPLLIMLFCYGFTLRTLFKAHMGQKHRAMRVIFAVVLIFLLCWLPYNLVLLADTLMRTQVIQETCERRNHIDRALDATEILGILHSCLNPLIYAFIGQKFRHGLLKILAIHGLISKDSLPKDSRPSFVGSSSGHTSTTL
Experiment: cell-based or functional assay
test.readout: [35S]GTPγS % inhibition of max, GRO-α (%)
Express the result in % but write the number alone.

# return recorded [35S]GTPγS % inhibition of max, GRO-α for entry CXCR20021 (bispecific antibody, not shown: small tags and cut ends) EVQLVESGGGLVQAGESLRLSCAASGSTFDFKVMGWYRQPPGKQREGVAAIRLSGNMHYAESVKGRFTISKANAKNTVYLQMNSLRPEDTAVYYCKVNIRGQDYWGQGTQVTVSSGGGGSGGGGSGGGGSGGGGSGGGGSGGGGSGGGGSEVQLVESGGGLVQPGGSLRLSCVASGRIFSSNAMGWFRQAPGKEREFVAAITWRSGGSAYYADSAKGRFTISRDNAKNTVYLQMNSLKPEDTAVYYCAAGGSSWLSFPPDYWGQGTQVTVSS 100
